As shown below, each of these binders has a reported P.E. binding ELISA OD value.
Biological target: T1, mouse IL-2Rβ (mouse) (UniProt P16297)
T1 sequence (looked up): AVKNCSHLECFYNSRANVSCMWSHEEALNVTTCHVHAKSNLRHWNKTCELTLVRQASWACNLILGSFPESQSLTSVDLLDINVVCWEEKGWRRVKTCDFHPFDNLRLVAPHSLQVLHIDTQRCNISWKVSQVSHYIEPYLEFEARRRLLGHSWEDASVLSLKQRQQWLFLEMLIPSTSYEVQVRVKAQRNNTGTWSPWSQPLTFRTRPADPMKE
Test: P.E. binding ELISA on coated protein
Dear colleague, please send the value followed by its unit.

| BINDER | OBSERVED VALUE |
| --- | --- |
| FJ1427_P035MP03G01 (VHH) VHH: EVQLVESGGGLVQAGGSLRLSCAASGGTFSSYAMGWFRQAPGKEREFVAATTRGGGRTMYAVSTEGRFTCSRDNAKNTVYLLMNRVKPEDTAVYYCAARTSYYSGTYYPASSDFDIWGQGTQVTVSS | 0.049 OD450 nm |
| FJ1427 P035MP02B12 (VHH) VHH: QVQLVESGGGLVQAGGSLRLSCAASGRADSNAIMAWFRQAPGKEREFIVAVTYSGMPTYQDDSVQGRFTASRDNAKNTVYLQMNSLKPEDTAVYYCAARMYSASTYYGDYDYWGQGTQVTVSS | 0.048 OD450 nm |
| FJ1427_P035MP03E08 (VHH) VHH: QVQLVESGGGLVQAGGSLRLSCAAAGRAIENYPVGWFRRAPGKEREFVAAITWISGSTLYADSVKGRFTISRDNAKNTVYLQMSSLKPEDTALYYCAAALKTITRGQNDYSYWGQGTQVTVSS | 0.048 OD450 nm |
| FJ1427 P035MP03B12 (VHH) VHH: EVQLVESGGGLVQAGGSLRLSCAASGDVFVRYTMAWFRQAPGKEREFVAAVTDSGRTADYVDSVKGRFTVSRDNAKNTVYLQMNNLKPEDTAVYYCAANTDYFQIRSLDRNTWGQGTQVTVSS | 0.049 OD450 nm |

IN: Item under review: FJ1427 P035MP03F09 (VHH) VHH: EVQLVESGGGLVQAGGSLTLSCAASGRAFSNYPVGWFRQAPGKEREFVAAITWLSGSTLYADSVEGRFTISRDNAKNTVYLLMSSLKPEDTALYFCAAALKTITRGQNDYSYWGQGTQVTVSS . Reported P.E. binding ELISA OD?
OUT: 0.048 OD450 nm

IN: Item under review: FJ1427 P035MP03A06 (VHH) VHH: EVQLVESGGGLVQTGGSLRLSCAVSGSRFISDVMGWYRQVPGKARELVADMADGGSAKYADSVKGRFSIVRDSGKSTMYLQMSSLKPEDTGMYYCKAGLWIAGRHSDYWGQGTQVTVSS . Reported P.E. binding ELISA OD?
OUT: 0.047 OD450 nm

IN: Item under review: FJ1427 P035MP03F11 (VHH) VHH: QVQLVESGGGLAQAGGSLRLSCAASGRTFSQDAKAWFRQAPGKEREFVAAITWSGRDTDYADSVKGRFTIARDNAKNTVYLQMDSLKPEDTAVYYCAVYPQGTIGPYFRSSNHYDYWGQGTQVTVSS . Reported P.E. binding ELISA OD?
OUT: 0.048 OD450 nm

IN: Item under review: FJ1427 P035MP02F12 (VHH) VHH: QLQLVESGGGLVQTGTSLRLSCAASGHTSRINAMGWFRQFPGKEREFVAAISRNGGSTVYVDSVKGRFTISRDNAKSTVYLQMNSLKPEDTAVYYCTATDAVGWTTRWMTADFGFWGQGTQVTVSS . Reported P.E. binding ELISA OD?
OUT: 0.048 OD450 nm
